Recorded values, source the supplement of paper PMC10065799.

- target_or_test_system: Grb2 SH2 (UniProt P62993)
- Sequence (P62993 whole entry, looked up): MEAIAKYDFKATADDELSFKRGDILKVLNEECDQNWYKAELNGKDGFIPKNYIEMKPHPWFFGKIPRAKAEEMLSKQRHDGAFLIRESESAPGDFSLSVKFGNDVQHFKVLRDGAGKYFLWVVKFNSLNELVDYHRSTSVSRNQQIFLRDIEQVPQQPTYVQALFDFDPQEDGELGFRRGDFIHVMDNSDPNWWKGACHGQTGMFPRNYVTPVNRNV
- assay_remarks: SH2 binding enrichment of the phosphorylated peptide, bacterial display (enrichment ratio); higher = better substrate or ligand; peptides without Tyr show the background
Entry flag: 1.0 if SH2 binding enrichment reaches 0.8; 0.0 if it does not.

Problem: Would you say LAVGDYMRRQK [ATM_Y1915_V1913G] shows SH2 binding enrichment at minimum 0.8?
Result: 0.0

Problem: Is it the case that GLPQTYCVSGP [DYSF_Y1684] has SH2 binding enrichment reaching or exceeding 0.8?
Result: 1.0

Problem: Say whether KDAGDYKYKAK [LRIT3_Y326_C328Y] shows SH2 binding enrichment of 0.8 or more.
Result: 0.0

Problem: Entry QNTGDYCDLFG [PTPN11_Y62_Y63C_YF] : is its SH2 binding enrichment no less than 0.8?
Result: 1.0

Problem: Test whether the sequence VDGSVYKLHPS [GCK_Y413] records SH2 binding enrichment of 0.8 or higher.
Result: 0.0

Problem: Exam item: decide whether the reported SH2 binding enrichment for VKANTYEKYWL [GATM_Y100_P105L] is at least 0.8.
Result: 1.0

* * *

- Tested on: AncSZ;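 further: 11-residue human phosphosite peptides and single-mutation variants displayed on the E. coli surface, counted by deep sequencing, each peptide's frequency after selection divided by its frequency in the unselected input library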;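 further: frequency after pTyr selection over input frequency; kinase dosed for 20-30% of maximal phosphorylation in three min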
- assay_remarks: phosphorylation enrichment, bacterial display (enrichment ratio); higher = better substrate or ligand; peptides without Tyr show the background
Lab note: anything with phosphorylation enrichment at or over 1 counts as yes; the rest go in no.

Problem: Reported phosphorylation enrichment at or above 1? KRYRIYHLAIS [BRCA2_Y3009_T3013I]
Result: no

Problem: # check: phosphorylation enrichment of FADIAYNFRHR [PAH_Y166_G171R_YF] is greater than or equal to 1
Result: no

Problem: Exam item: decide whether the reported phosphorylation enrichment for FKDYFYCWNTF [AICDA_Y146] is at least 1.
Result: yes

Problem: # bool: phosphorylation enrichment of KVKSIYFHTQG [AR_Y916_P914S] >= 1
Result: no

Problem: Does ECKETYHEGEC [PRKN_Y372_A371T] have a reported phosphorylation enrichment of at least 1?
Result: yes

Problem: Textbook exercise: given the entry IDQDKYAVHFI [FLNA_Y2388_R2391H] , state whether its phosphorylation enrichment is greater than or equal to 1.
Result: no

Problem: Hi, just wondering whether AELVQYYMEHH [PTPN11_Y80] shows phosphorylation enrichment of 1 or higher.
Result: yes

Problem: Textbook exercise: given the entry GSERDYTFEEL [EIF2S2_Y174_YF] , state whether its phosphorylation enrichment is greater than or equal to 1.
Result: yes

Problem: Is the recorded value of phosphorylation enrichment equal to or greater than 1 for this sequence? PLKFLYPNIDR [STAT1_Y668_K673R_YF]
Result: yes

Problem: Hello, I need to know if QKLPSYILENN [VPS13B_Y2774] has measured phosphorylation enrichment not below 1. Thanks!
Result: yes

Problem: Identify whether the reported phosphorylation enrichment of the following sequence is 1 or greater: GGYNNYGYGSD [HNRNPH3_Y159_N163S]
Result: no

Problem: API: above_or_equal(metric=phosphorylation enrichment, cutoff=1) for item EFITRYIASLK [PSMA7_Y110_YF]
Result: no

Problem: Determine whether this sequence has phosphorylation enrichment no lower than 1: DLVSEYQQFQD [TUBB3_Y422_YF]
Result: yes

Problem: Check the entry LKVQVYILGRE [ASS1_Y359_G356V] : does phosphorylation enrichment equal or exceed 1?
Result: yes

Problem: Given the entry CLLHCYFSQIH [MCM3AP_Y873_R878H] , answer whether its phosphorylation enrichment meets or surpasses 1.
Result: no

Problem: Check if phosphorylation enrichment >= 1 (inclusive). Item: KRELRYMHSRV [ABCD1_Y281_G277R]
Result: no

Problem: Exam item: decide whether the reported phosphorylation enrichment for MKGDYYCYLAE [YWHAG_Y131_R132C] is at least 1.
Result: yes

Problem: Form field: phosphorylation enrichment at least 1? Entry: SSQTVYQRVEG [TFR2_Y23]
Result: no

Problem: # bool: phosphorylation enrichment of LNPDGYKKAYE [CPXM2_Y427_E428K] >= 1
Result: no

Problem: In plain terms: is recorded phosphorylation enrichment at least 1 for SQGRQYQELPR [KCNH2_Y1009_R1005Q] ?
Result: no

Problem: Decide: phosphorylation enrichment of DNEALYDICFC [TUBB3_Y208_R213C] >= 1?
Result: yes

Problem: Given the entry CGSLLYGLVHQ [PRKCG_Y122] , answer whether its phosphorylation enrichment meets or surpasses 1.
Result: no

Problem: phosphorylation enrichment >= 1 for MRTMGYMPTEM [CABP5_Y62] ?
Result: no

Problem: hey, is phosphorylation enrichment for this one >= 1? EEAAGCAQESQ [CAMKV_Y491_Y491C]
Result: yes

Problem: # bool: phosphorylation enrichment of HNLNFYKKTTN [FGFR3_Y648_D646N_YF] >= 1
Result: yes

Problem: Determine whether this sequence has phosphorylation enrichment no lower than 1: QCTSAYPLQPE [NANS_Y188]
Result: yes

Problem: Given the entry SGETEYNPTEA [NBEAL2_Y2748] , answer whether its phosphorylation enrichment meets or surpasses 1.
Result: yes
